system: Escherichia coli; test: Antibacterial activity against Toho 2 (ESBL) producing Escherichia coli SR-21003 after 20 hrs by agar dilution method; assay type: functional
Listing of recorded MIC by entry.
Answer in mg/L, number only, no unit symbol.

Some compounds with known MIC results, for comparison:
{"Cpd Smiles": "CNCCCn1ccc2c1ccc[n+]2CC1=C(C(=O)[O-])N2C(=O)[C@@H](NC(=O)/C(=N\\OC3(C(=O)O)CC3)c3nc(N)sc3Cl)[C@H]2SC1", "Experimental Readout": "MIC", "Value Reported": 4}
{"Cpd Smiles": "CNCCCn1ccc2c1ccc[n+]2CC1=C(C(=O)[O-])N2C(=O)[C@@H](NC(=O)/C(=N\\O[C@@H](C)C(=O)O)c3csc(N)n3)[C@H]2SC1", "Experimental Readout": "MIC", "Value Reported": 1}

# input for lookup
Prompt: Record request: MIC value, item CNCCCn1cnc2c1ccc[n+]2CC1=C(C(=O)[O-])N2C(=O)[C@@H](NC(=O)/C(=N\OC(C)(C)C(=O)O)c3csc(N)n3)[C@H]2SC1
Response: 2

* * *

tested on: Escherichia coli; assay: Antibacterial activity against Toho 2 (ESBL) producing Escherichia coli SR-21003 after 20 hrs by agar dilution method; type: functional
Experimental Readout: MIC (mg/L)
Form entry: value (mg/L) — number only.

Below: 3 molecules and their reported MIC.
{"Cpd Smiles": "CC[C@H](O/N=C(\\C(=O)N[C@@H]1C(=O)N2C(C(=O)[O-])=C(C[n+]3cccc4c3ccn4CCCNC)CS[C@H]12)c1nc(N)sc1Cl)C(=O)O", "Target Of Assay": "Escherichia coli", "Value Reported": 4}
{"Cpd Smiles": "CNCCCn1ccc2c1ccc[n+]2CC1=C(C(=O)[O-])N2C(=O)[C@@H](NC(=O)/C(=N\\O[C@@H](C)C(=O)O)c3nsc(N)n3)[C@H]2SC1", "Target Of Assay": "Escherichia coli", "Value Reported": 8}
{"Cpd Smiles": "CNCCCn1ccc2c1ccc[n+]2CC1=C(C(=O)[O-])N2C(=O)[C@@H](NC(=O)/C(=N\\O[C@@H](CO)C(=O)O)c3nc(N)sc3Cl)[C@H]2SC1", "Target Of Assay": "Escherichia coli", "Value Reported": 2}

Prompt: Item: C=C(O/N=C(\C(=O)N[C@@H]1C(=O)N2C(C(=O)[O-])=C(C[n+]3cccc4c3ccn4CCCNC)CS[C@H]12)c1nc(N)sc1Cl)C(=O)O Test system: Escherichia coli Read-out: MIC Value: ?
Response: 1

* * *

Property: MIC; scope: individual compounds
test system: Moraxella catarrhalis; assay: Antibacterial activity against Moraxella catarrhalis ATCC 43617 after 20 hrs by agar dilution method; format: functional; conditions: ATCC 43617, 20 h
The reply should contain only the number, in mg/L.

Use the examples below as a reference point.
{"Cpd Smiles": "CNCCCn1ccc2c1ccc[n+]2CC1=C(C(=O)[O-])N2C(=O)[C@@H](NC(=O)/C(=N\\O[C@@H](C)C(=O)O)c3nc(N)sc3F)[C@H]2SC1", "Experimental Readout": "MIC", "Value Reported": 0.5}
{"Cpd Smiles": "CNCCCn1ccc2c1ccc[n+]2CC1=C(C(=O)[O-])N2C(=O)[C@@H](NC(=O)/C(=N\\O[C@@H](C)C(=O)O)c3nc(N)sc3C)[C@H]2SC1", "Experimental Readout": "MIC", "Value Reported": 0.5}
{"Cpd Smiles": "CNCCCn1ccc2c1ccc[n+]2CC1=C(C(=O)[O-])N2C(=O)[C@@H](NC(=O)/C(=N\\O[C@@H](C)C(=O)O)c3csc(N)n3)[C@H]2SC1", "Experimental Readout": "MIC", "Value Reported": 0.125}

Prompt: Give the reported MIC for CC[C@H](O/N=C(\C(=O)N[C@@H]1C(=O)N2C(C(=O)[O-])=C(C[n+]3cccc4c3ccn4CCCNC)CS[C@H]12)c1nc(N)sc1Cl)C(=O)O (system: Moraxella catarrhalis).
Response: 0.016

* * *

system: Moraxella catarrhalis; assay: Antibacterial activity against Moraxella catarrhalis ATCC 43617 after 20 hrs by agar dilution method; assay type: functional; conditions: ATCC 43617, 20 h
Experimental Readout: MIC
Report field: quantity (unit follows the number).

{"Cpd Smiles": "CNCCCn1ccc2c1ccc[n+]2CC1=C(C(=O)[O-])N2C(=O)[C@@H](NC(=O)/C(=N\\O[C@@H](C)C(=O)O)c3nc(N)sc3Br)[C@H]2SC1", "Experimental Readout": "MIC", "Value Reported": "0.016 µg/mL"}
{"Cpd Smiles": "CNCCCn1ccc2c1ccc[n+]2CC1=C(C(=O)[O-])N2C(=O)[C@@H](NC(=O)/C(=N\\O[C@@H](C)C(=O)O)c3nc(N)sc3Cl)[C@H]2SC1", "Experimental Readout": "MIC", "Value Reported": "0.016 µg/mL"}
{"Cpd Smiles": "CNCCCn1ccc2c1ccc[n+]2CC1=C(C(=O)[O-])N2C(=O)[C@@H](NC(=O)/C(=N\\O[C@H](C(=O)O)C(C)C)c3nc(N)sc3Cl)[C@H]2SC1", "Experimental Readout": "MIC", "Value Reported": "0.016 µg/mL"}
{"Cpd Smiles": "CNCCCn1ccc2c1ccc[n+]2CC1=C(C(=O)[O-])N2C(=O)[C@@H](NC(=O)/C(=N\\OCC(=O)O)c3nc(N)sc3Cl)[C@H]2SC1", "Experimental Readout": "MIC", "Value Reported": "0.016 µg/mL"}

Moving on to another molecule below.
Prompt: Quick one: MIC for CNCCCn1ccc2c1ccc[n+]2CC1=C(C(=O)[O-])N2C(=O)[C@@H](NC(=O)/C(=N\O[C@H](C)C(=O)O)c3nc(N)sc3Cl)[C@H]2SC1 ?
Response: 0.032 µg/mL

* * *

test system: Moraxella catarrhalis; assay: Antibacterial activity against Moraxella catarrhalis ATCC 43617 after 20 hrs by agar dilution method; assay type: functional; settings: ATCC 43617, 20 h
Recorded MIC values for a group of compounds are listed next.
// return the numeric value with its unit appended

{"Compound": "CNCCCn1ccc2c1ccc[n+]2CC1=C(C(=O)[O-])N2C(=O)[C@@H](NC(=O)/C(=N\\O[C@@H](CO)C(=O)O)c3nc(N)sc3Cl)[C@H]2SC1", "Experimental Readout": "MIC", "Value Reported": "0.032 µg/mL"}

Prompt: Could you share which MIC value was measured for CC(C)(O/N=C(\C(=O)N[C@@H]1C(=O)N2C(C(=O)[O-])=C(C[n+]3ccccc3)CS[C@H]12)c1csc(N)n1)C(=O)O [CEFTAZIDIME] ?
Response: 0.063 µg/mL

Prompt: Then this compound: CNCCCn1ccc2c1ccc[n+]2CC1=C(C(=O)[O-])N2C(=O)[C@@H](NC(=O)/C(=N\OC3(C(=O)O)CC3)c3nc(N)sc3Cl)[C@H]2SC1
Response: 0.008 µg/mL

Prompt: Can you handle CNCCCn1ccc2c1ccc[n+]2CC1=C(C(=O)[O-])N2C(=O)[C@@H](NC(=O)/C(=N\O[C@@H](C)C(=O)O)c3nsc(N)n3)[C@H]2SC1 next?
Response: 0.5 µg/mL

Prompt: Record: CO/N=C(\C(=O)N[C@@H]1C(=O)N2C(C(=O)[O-])=C(C[N+]3(C)CCCC3)CS[C@H]12)c1csc(N)n1
Response: 0.5 µg/mL

Prompt: Do the same for C=C(O/N=C(\C(=O)N[C@@H]1C(=O)N2C(C(=O)[O-])=C(C[n+]3cccc4c3ccn4CCCNC)CS[C@H]12)c1nc(N)sc1Cl)C(=O)O please
Response: 0.016 µg/mL

Prompt: Lookup CNCCCn1ccc2c1ccc[n+]2CC1=C(C(=O)[O-])N2C(=O)[C@@H](NC(=O)/C(=N\OC3(C(=O)O)CCC3)c3nc(N)sc3Cl)[C@H]2SC1
Response: 0.016 µg/mL

Prompt: Next record, please: CNCCCn1ccc2c1ccc[n+]2CC1=C(C(=O)[O-])N2C(=O)[C@@H](NC(=O)/C(=N\OC(C)(C)C(=O)O)c3nc(N)sc3Cl)[C@H]2SC1
Response: 0.008 µg/mL

src = ChEMBL document CHEMBL1149714
